# measured.target: T1, HLA-DR7 (HLA-DRB1*07:01) (human)
# T1 construct: mature; purified from homozygous EBV-transformed lymphoblastoid cells with antibody L243
# assay.explanation: competition ELISA vs biotin-YKL
No end group written: not given here.
# relative affinity binned as lower segment = under 5, middle segment = from 5 up to 20, upper segment = 20 and over

Which category does the recorded relative affinity put SEYVKDIYAYLRQLE-NH2 [CCNB1 168-182] in? upper segment

Which category does the recorded relative affinity put GNMRAILIDWLVQVQ-NH2 [CCNB1 199-213] in? middle segment

Which category does the recorded relative affinity put TAMFIASKYEEMYPP-NH2 [CCNB1 250-264] in? lower segment

Which category does the recorded relative affinity put RAILIDWLVQVQMKF-NH2 [CCNB1 202-216] in? middle segment

Which category does the recorded relative affinity put GDFAFVTDNTYTKHQ-NH2 [CCNB1 267-281] in? upper segment

Which category does the recorded relative affinity put VQMKFRLLQETMYMT-NH2 [CCNB1 212-226] in? upper segment

Which category does the recorded relative affinity put RPLPLHFLRRASKIG-NH2 [CCNB1 299-313] in? upper segment

Which category does the recorded relative affinity put DWLVQVQMKFRLLQE-NH2 [CCNB1 207-221] in? middle segment

Which category does the recorded relative affinity put FRLLQETMYMTVSII-NH2 [CCNB1 216-230] in? lower segment

Which category does the recorded relative affinity put ETMYMTVSIIDRFMQ-NH2 [CCNB1 221-235] in? lower segment
